These data points were gathered from paper PMC6173406.

# pKi values compiled below
- test-target: human BChE (Homo sapiens)
- Construct: gift of Dr. F. Nachon (Département de Toxicologie, Armed Forces Biomedical Research Institute, France)
- Sequence (P06276 29-602): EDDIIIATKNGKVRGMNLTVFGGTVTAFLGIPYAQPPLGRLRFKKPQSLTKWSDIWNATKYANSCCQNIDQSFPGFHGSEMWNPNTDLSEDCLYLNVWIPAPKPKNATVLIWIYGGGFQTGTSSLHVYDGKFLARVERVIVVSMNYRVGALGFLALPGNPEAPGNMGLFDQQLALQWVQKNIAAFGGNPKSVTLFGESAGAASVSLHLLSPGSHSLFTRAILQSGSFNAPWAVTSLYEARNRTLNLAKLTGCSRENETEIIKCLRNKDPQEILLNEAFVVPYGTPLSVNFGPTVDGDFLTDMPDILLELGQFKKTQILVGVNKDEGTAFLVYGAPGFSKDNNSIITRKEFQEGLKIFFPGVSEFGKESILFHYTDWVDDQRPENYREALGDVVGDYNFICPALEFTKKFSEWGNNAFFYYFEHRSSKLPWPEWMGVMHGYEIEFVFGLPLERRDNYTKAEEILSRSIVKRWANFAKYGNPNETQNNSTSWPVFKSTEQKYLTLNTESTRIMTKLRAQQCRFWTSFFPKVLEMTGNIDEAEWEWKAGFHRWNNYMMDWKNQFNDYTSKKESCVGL
- protocol-details: Reversible inhibition of human BChE, Ellman method with ATCh, Hunter-Downs analysis
- Type: biochemical
- run-conditions: enzyme-inhibitor dissociation constant ± standard error; ATCh 0.050–0.50 mM, pH 7.4, 25 °C
Please treat pKi as minus the base-10 logarithm of the molar concentration.

Consider the worked cases shown below.
Ask: Fill in the blank: the reported pKi of C=CC1C[N+]2(Cc3ccc(Cl)cc3)CCC1CC2C(O)c1ccnc2ccccc12 (stereo not drawn) [CN-(pCl)] is ____.
Reply: 5.21

Ask: Fill in the blank: the reported pKi of C=CC1C[N+]2(Cc3ccccc3)CCC1CC2C(O)c1ccnc2ccccc12 (stereo not drawn) [CD-Bzl] is ____.
Reply: 7.12

Ask: Fill in the blank: the reported pKi of C=CC1C[N+]2(Cc3ccc([N+](=O)[O-])cc3)CCC1CC2C(O)c1ccnc2ccccc12 (stereo not drawn) [CN-(pNO2)] is ____.
Reply: 5.12

Ask: Fill in the blank: the reported pKi of C=CC1C[N+]2(Cc3ccc(Br)cc3)CCC1CC2C(O)c1ccnc2ccccc12 (stereo not drawn) [CN-(pBr)] is ____.
Reply: 5.46

Ask: Fill in the blank: the reported pKi of C=CC1C[N+]2(Cc3ccc(C)cc3)CCC1CC2C(O)c1ccnc2ccccc12 (stereo not drawn) [CD-(pCH3)] is ____.
Reply: 6.77

Further cases:
Ask: Fill in the blank: the reported pKi of C=CC1C[N+]2(Cc3cccc(Br)c3)CCC1CC2C(O)c1ccnc2ccccc12 (stereo not drawn) [CD-(mBr), N-(3-bromobenzyl) cinchonidinium bromide] is ____.
Reply: 6.22
